// reported pIC50 for each item listed
Tested on: Plasmodium falciparum
Assay: microbe, parasite or virus in culture
Settings: NF54
Description: Antimalarial activity against drug-sensitive Plasmodium falciparum NF54
Keep it numeric: pIC50 is minus log10 of the concentration in mol/L.

>>> reported_value("CS(=O)(=O)Nc1cccc(-c2ccc3ncc(-c4ccncc4)n3n2)c1")
7.80
>>> reported_value("COc1ccc(-c2ccc3ncc(-c4ccncc4)n3n2)cc1OC")
7.80
>>> reported_value("CC(C)(C)NC(=O)c1ccc(F)c(-c2ccc3ncc(-c4ccc(S(C)(=O)=O)cc4)n3n2)c1")
6.80
>>> reported_value("CS(=O)(=O)Nc1cccc(-c2ccc3ncc(-c4cncnc4)n3n2)c1")
7.03

Moving on to another compound below.
# input Entry `CN1CCN(S(=O)(=O)c2ccc(-c3ccc4ncc(-c5ccncc5)n4n3)cc2)CC1` needs its pIC50 filled in; supply it.
# output 6.13

###

System: Plasmodium falciparum
Assay: microbe, parasite or virus in culture
Details: NF54
Just so you know, the groups by IC50 go like this: interval 1: < 80 nM; interval 2: ≥ 80 nM and < 1000 nM; interval 3: ≥ 1000 nM

>>> assigned_label("CS(=O)(=O)c1ccc(-c2ccc3ncc(-c4cccnc4)n3n2)cc1")
"interval 3"

# input Which bin, given its IC50, does `c1cnc2c(-c3ccc4ncc(-c5ccncc5)n4n3)cccc2c1` occupy?
# output interval 3

# input Which bin, given its IC50, does `FC(F)(F)Oc1ccc(-c2ccc3ncc(-c4ccncc4)n3n2)cc1` occupy?
# output interval 3

# input Which bin, given its IC50, does `CC(C)(C)OC(=O)NCc1cccc(-c2ccc3ncc(-c4ccncc4)n3n2)c1` occupy?
# output interval 2

# input Which bin, given its IC50, does `Fc1cccc(-c2ccc3ncc(-c4ccncc4)n3n2)c1` occupy?
# output interval 2

# input Which bin, given its IC50, does `CC(C)(C)OC(=O)NCc1ccc(-c2ccc3ncc(-c4ccncc4)n3n2)cc1` occupy?
# output interval 3

# input Which bin, given its IC50, does `c1cncc(-c2ccc3ncc(-c4cccnc4)n3n2)c1` occupy?
# output interval 3

# input Which bin, given its IC50, does `CS(=O)(=O)c1ccc(-c2cnc3ccc(-c4cccc(S(=O)(=O)NCc5ccccc5)c4)nn23)cc1` occupy?
# output interval 1

# input Which bin, given its IC50, does `CS(=O)(=O)c1ccc(-c2cnc3ccc(-c4cccc(S(C)(=O)=O)c4)nn23)cc1` occupy?
# output interval 1

# input Which bin, given its IC50, does `CS(=O)(=O)c1ccc(-c2cnc3ccc(-c4cccc(C(=O)N5CCCCC5)c4)nn23)cc1` occupy?
# output interval 1

###

Assay: Solubility of the compound in 0.01M HCl at pH 2.5
Type: physicochemical
endpoint: solubility

# input Entry `CS(=O)(=O)c1ccc(-c2cnc3ccc(-c4cccc(C(=O)N5CCNCC5)c4)nn23)cc1` needs its solubility filled in; supply it.
# output > 100 µg/mL

###

Test system: Plasmodium falciparum
Experiment: microbe, parasite or virus in culture
Details: NF54
// reported IC50 for each item listed
State just the number; it will be interpreted in nM.

Sample records with IC50:
>>> reported_value("FC(F)(F)Oc1cccc(-c2ccc3ncc(-c4ccncc4)n3n2)c1")
146
>>> reported_value("CS(=O)(=O)Nc1cccc(-c2ccc3ncc(-c4ccc(S(C)(=O)=O)cc4)n3n2)c1")
19
>>> reported_value("CS(=O)(=O)c1ccc(-c2cnc3ccc(-c4cccc(C(N)=O)c4)nn23)cc1")
102
>>> reported_value("CS(=O)(=O)c1ccc(-c2cnc3ccc(-c4cccc(S(N)(=O)=O)c4)nn23)cc1")
4.4
>>> reported_value("CS(=O)(=O)c1ccc(-c2cnc3ccc(-c4cccc(C(=O)N5CCNCC5)c4)nn23)cc1")
15
>>> reported_value("CS(=O)(=O)c1ccc(-c2cnc3ccc(-c4ccc(C(F)(F)F)c(F)c4)nn23)cc1")
393
>>> reported_value("Fc1ccc(-c2ccc3ncc(-c4ccncc4)n3n2)cc1")
186

Moving on to another compound below.
# input Entry `CN(C)c1cccc(-c2ccc3ncc(-c4ccc(S(C)(=O)=O)cc4)n3n2)c1` needs its IC50 filled in; supply it.
# output 117

###

Assay: AUC (0 to infinity) in Sprague-Dawley rat at 3.6 mg/ml, po
Type: ADME, organism-based
Design: dose 3.6 mg/ml, time infinity, route oral
Conditions: plasma
endpoint: AUC(0-inf) (µM·h)
State just the number; it will be interpreted in µM·h.

# input Entry `CS(=O)(=O)c1ccc(-c2cnc3ccc(-c4cccc(S(C)(=O)=O)c4)nn23)cc1` needs its AUC(0-inf) filled in; supply it.
# output 18.9

###

Test system: Plasmodium falciparum
Experiment: microbe, parasite or virus in culture
Conditions: K1
Description: Antimalarial activity against multidrug-resistant Plasmodium falciparum K1
endpoint: pIC50
Keep it numeric: pIC50 is minus log10 of the concentration in mol/L.

Sample records with pIC50:
>>> reported_value("CN1CCN(C(=O)c2cccc(-c3ccc4ncc(-c5ccc(S(C)(=O)=O)cc5)n4n3)c2)CC1")
8.26
>>> reported_value("CS(=O)(=O)Nc1cccc(-c2ccc3ncc(-c4ccc(S(C)(=O)=O)cc4)n3n2)c1")
7.72
>>> reported_value("CC(C)(C)OC(=O)NCc1ccc(-c2ccc3ncc(-c4ccncc4)n3n2)cc1")
5.79

Moving on to another compound below.
# input Entry `CS(=O)(=O)c1ccc(-c2cnc3ccc(-c4cccc(C(=O)NS(=O)(=O)C5CC5)c4)nn23)cc1` needs its pIC50 filled in; supply it.
# output 7.96

###

// reported pIC50 for each item listed
System: Plasmodium falciparum
Experiment: microbe, parasite or virus in culture
Conditions: K1
Keep it numeric: pIC50 is minus log10 of the concentration in mol/L.

>>> reported_value("CS(=O)(=O)c1ccc(-c2cnc3ccc(-c4cccc(C(=O)N5CCCCC5)c4)nn23)cc1")
8.14
>>> reported_value("CN(C)c1cccc(-c2ccc3ncc(-c4ccc(S(C)(=O)=O)cc4)n3n2)c1")
6.97
>>> reported_value("Clc1cccc(-c2ccc3ncc(-c4ccncc4)n3n2)c1")
6.74

Moving on to another molecule below.
# input Entry `CS(=O)(=O)c1ccc(-c2cnc3ccc(-c4ccc(C(=O)NC5CCCC5)cc4)nn23)cc1` needs its pIC50 filled in; supply it.
# output 6.84

###

System: Plasmodium falciparum
Test: microbe, parasite or virus in culture
Conditions: K1
// reported IC50 for each item listed
State just the number; it will be interpreted in nM.

>>> reported_value("CS(=O)(=O)Nc1cccc(-c2ccc3ncc(-c4ccncc4)n3n2)c1")
15
>>> reported_value("CS(=O)(=O)c1ccc(-c2cnc3ccc(-c4cccc(C(=O)N5CCNCC5)c4)nn23)cc1")
11
>>> reported_value("CS(=O)(=O)c1ccc(-c2cnc3ccc(-c4cccc(S(=O)(=O)NCc5ccccc5)c4)nn23)cc1")
3.3
>>> reported_value("CS(=O)(=O)c1ccc(-c2cnc3ccc(-c4ccc(F)c(Cl)c4)nn23)cc1")
152

# input Entry `COc1ccc(-c2ccc3ncc(-c4ccncc4)n3n2)cn1` needs its IC50 filled in; supply it.
# output 412

# input Entry `O=S(=O)(c1ccc(-c2ccc3ncc(-c4ccncc4)n3n2)cc1)N1CCOCC1` needs its IC50 filled in; supply it.
# output 1490

# input Entry `CS(=O)(=O)c1ccc(-c2ccc3ncc(-c4ccc(S(C)(=O)=O)cc4)n3n2)cc1` needs its IC50 filled in; supply it.
# output 753

# input Entry `COc1ccc(-c2cnc3ccc(-c4cccnc4)nn23)cc1OC` needs its IC50 filled in; supply it.
# output 23.5

# input Entry `CS(=O)(=O)c1ccc(-c2cnc3ccc(-c4cccc(S(N)(=O)=O)c4)nn23)cc1` needs its IC50 filled in; supply it.
# output 4.4

###

Tested on: Plasmodium falciparum
Assay: microbe, parasite or virus in culture
Conditions: NF54
endpoint: log10 IC50 (log10 of the value in nM)
Heads up: the numbers are on a log10 scale; they represent IC50 in nM.

Sample records with log10 IC50:
>>> reported_value("CS(=O)(=O)c1ccc(-c2cnc3ccc(-c4ccc(C(=O)NC5CCCC5)cc4)nn23)cc1")
2.19
>>> reported_value("CS(=O)(=O)c1ccc(-c2cnc3ccc(-c4cccc(C(=O)NS(=O)(=O)C5CC5)c4)nn23)cc1")
1.15
>>> reported_value("FC(F)(F)c1ccc(-c2ccc3ncc(-c4ccncc4)n3n2)cn1")
2.98
>>> reported_value("COc1ccc(-c2ccc3ncc(-c4ccncc4)n3n2)cn1")
2.78

Moving on to another compound below.
# input Entry CS(=O)(=O)Nc1cccc(-c2ccc3ncc(-c4ccc([S+](N)[O-])cc4)n3n2)c1 (stereo not given) needs its log10 IC50 filled in; supply it.
# output 1.26

###

Experiment: Apparent half life in Sprague-Dawley rat at 3.6 mg/ml, iv
Format: ADME, organism-based
Details: in vivo, read-out: t1/2(app) (converted)
endpoint: half-life (h)
State just the number; it will be interpreted in h.

# input Entry `CS(=O)(=O)c1ccc(-c2cnc3ccc(-c4cccc(S(C)(=O)=O)c4)nn23)cc1` needs its half-life filled in; supply it.
# output 7.15

src = ChEMBL document CHEMBL3232977
